Assay target: T1, radixin FERM domain (amino acid residues 1-310) (mouse, UniProt P26043 1-310)
T1 construct: also called Recombinant monomeric radixin FERM; FERM domain of radixin; source: E. coli Rosetta (DE3) pLysS, purified (Glutathione Sepharose 4B, HRV 3C cleavage, size exclusion chromatography)
T1 sequence (P26043 1-310): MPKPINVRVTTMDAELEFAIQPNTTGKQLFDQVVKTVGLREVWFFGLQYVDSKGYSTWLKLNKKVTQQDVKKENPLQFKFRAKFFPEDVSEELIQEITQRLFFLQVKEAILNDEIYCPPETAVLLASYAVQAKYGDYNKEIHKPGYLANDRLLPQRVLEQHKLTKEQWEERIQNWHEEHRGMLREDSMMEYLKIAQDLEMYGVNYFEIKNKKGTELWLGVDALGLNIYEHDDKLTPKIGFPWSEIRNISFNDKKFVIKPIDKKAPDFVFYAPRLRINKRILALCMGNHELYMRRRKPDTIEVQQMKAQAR
Measurement protocol: SPR; biotinylated peptides immobilized on streptavidin-coated CM5 chips, BIAcore 3000; radixin FERM injected at 37°; streptavidin flow cell subtracted; equilibrium binding fitted with a 1:1 Langmuir model
Test parameters: both partners purified
Square brackets hold non-standard residues; d marks the D form. Ends that are not written are not given here. * marks the point of attachment. Biotin = O=C1N[C@H]2[C@H](CS[C@H]2CCCCC(=O)*)N1; pY = N[C@@H](Cc1ccc(OP(=O)(O)O)cc1)C(=O)O; pS = N[C@@H](COP(=O)(O)O)C(=O)O
Quantity kind: Kd

Data request: Param item = Biotin-G[pS]D[pS]D[pY]EHYDFSAQ (also called phosphorylated CD6 SDSDY peptide; source: synthetic peptide; bought: Peptide Protein Research Ltd) [CD6 pSDpSDpY peptide] ; retrieve measured Kd.
Data returned: 500 to 2000 nM
